# Tested on: HCT-116
# Assay Method Text: NCI tumour cell line growth inhibition, 48 h
Activity calls are given as the source filed them. No stated cut-off is given here; in the data, active = GI50 up to about 1.1 µM and inactive = higher.
Below, each of the molecules is paired with its reported GI50 value.

• Cc1cc2c(s1)C(N)CC2=O (stereo not given) = > 100 µM (inactive)
• Cc1cc(-c2nc3cc(F)ccc3s2)ccc1N = 21.1 µM (inactive)
• COc1ccc(C(=O)/C=C/c2cc(O)c(O)c(F)c2F)c(OC)c1 = 6.95 µM (inactive)

Lab note: measured GI50 of `Nc1c2ccccc2nc2ccc3c(=O)cc(-c4ccccc4)oc3c12` was 0.299 µM (active)

Lab note: measured GI50 of CC(C)(C)c1cc(C=C(C#N)C#N)cc(C(C)(C)C)c1O [TYRPHOSTIN A9] was 0.277 µM (active)

* * *

Below, each of the compounds is paired with its reported GI50 value.
# Test system: SNB-19
# Assay Method Text: NCI tumour cell line growth inhibition, 48 h
Active and inactive are the calls of the source. Cut-off read from the data, not from the text of the source: active = GI50 up to about 1.1 µM and inactive = higher.

Guide cases for GI50, answers given:
* COc1c2ccoc2c(S(=O)(=O)Nc2ccc(Cl)cc2)c2oc(C)cc(=O)c12 | 99.1 µM (inactive)
* COc1ccc2c(-c3ccc(OCCN(C)C)cc3)c(Oc3ccccc3)c(=O)oc2c1 | 5.86 µM (inactive)
* COc1ccc(C2(CC(C)C)CCN(S(=O)(=O)c3ccc(C)cc3)C2)cc1OC (stereo not given) | 49.7 µM (inactive)
* CC(=O)OCC1OC(n2cnc3c(I)nc(I)nc32)C(OC(C)=O)C1OC(C)=O (stereo not given) | 12.5 µM (inactive)
* N=C(N)/N=C(\N)Nc1ccc(C(=O)O)cc1 | > 100 µM (inactive)
* CN[C@H]1CC[C@]23C[C@]24CC[C@]2(C)[C@@H]([C@H](C)N(C)C)CC[C@@]2(C)[C@@H]4CC[C@H]3C1(C)C | 16.7 µM (inactive)
* Clc1ccc(COC(Cn2ccnc2)c2ccc(Cl)cc2Cl)cc1 (stereo not given) [ECONAZOLE NITRATE] | 14.9 µM (inactive)
* C=C([C@@]1(O)C[C@H]2[C@H](CCC2(OC)OC)[C@@H]2c3ccccc3O[C@@H]21)[Si](C)(C)C | > 100 µM (inactive)
* COC1CC(OC2C(C)OC(OC3C(C)OC(OC4C(C)OC(O[C@H]5CC[C@@]6(C)C(=CC[C@]7(O)[C@@H]6C[C@@H](O)[C@@]6(C)[C@]7(O)CC[C@@]6(O)C(C)=O)C5)CC4OC)CC3OC)CC2OC)OC(C)C1O (stereo not given in full) | > 12.5 µM (inactive)

GET /values?item= `COc1cccc2c3ccccc3c3nc[nH]c3c12` &system= SNB-19 returns GI50: > 46.8 µM (inactive)

* * *

Below, each of the compounds is paired with its reported GI50 value.
# Test system: U-251
# Assay Method Text: NCI tumour cell line growth inhibition, 48 h
Calls of active or inactive are those of the source. No stated cut-off is given here; in the data, active = GI50 up to about 1.1 µM and inactive = higher.

Lab note: measured GI50 of `Cc1cc(Cc2cc(C)c(N)cc2N)c(N)cc1N` was > 100 µM (inactive)

Lab note: measured GI50 of `COc1cc(CN(C)N2C(=O)c3cccc4cc([N+](=O)[O-])cc(c34)C2=O)cc(OC)c1OC` was > 100 µM (inactive)

Lab note: measured GI50 of `CN(C)CCNC(=O)c1cccc2[nH]c(-c3ccncc3)nc12` was 3.1 µM (inactive)

Lab note: measured GI50 of `Cc1cccc2sc(-c3ccc(O)cc3)nc12` was 19.3 µM (inactive)

Lab note: measured GI50 of `CN[C@H]1CC[C@]23C[C@]24CC[C@]2(C)[C@@H]([C@H](C)N(C)C)CC[C@@]2(C)[C@@H]4CC[C@H]3C1(C)C` was 13.7 µM (inactive)

Lab note: measured GI50 of `CN(C)CCNc1ccc2nnn3c4ccc(O)cc4c(=O)c1c23` was 2.1 µM (inactive)

Lab note: measured GI50 of `Cc1nnc2n1N=C(c1ccc(-c3ccc([N+](=O)[O-])cc3)o1)CS2` was > 100 µM (inactive)

Lab note: measured GI50 of `COC(=O)[C@]1(CCC(C)=O)C(=O)C=CN([C@H](C)c2ccccc2)[C@@H]1Cc1ccc(OC)c(OCc2ccccc2)c1I` was 17.3 µM (inactive)

Lab note: measured GI50 of CC1(C)C2CC3C(C)(C2)C31c1cc(Cl)ccc1N (stereo unspecified) was 15.2 µM (inactive)

Lab note: measured GI50 of `Cc1c2ccncc2c(C)c2c1[nH]c1ccc(O)c(OCC(F)(F)F)c12` was 2.7 µM (inactive)

Lab note: measured GI50 of `O=S(=O)(c1ccc2ccccc2c1)N1CCN(S(=O)(=O)c2ccc3ccccc3c2)CC1` was > 100 µM (inactive)

The reported numbers originate from ChEMBL document CHEMBL1201862.
